Where do the numbers come from? From IntAct's records for PubMed 25910212.

B1: Keratin, type II cytoskeletal 6A (Homo sapiens), P02538 (parent)
chain: MASTSTTIRSHSSSRRGFSANSARLPGVSRSGFSSVSVSRSRGSGGLGGACGGAGFGSRSLYGLGGSKRISIGGGSCAISGGYGSRAGGSYGFGGAGSGFGFGGGAGIGFGLGGGAGLAGGFGGPGFPVCPPGGIQEVTVNQSLLTPLNLQIDPTIQRVRAEEREQIKTLNNKFASFIDKVRFLEQQNKVLETKWTLLQEQGTKTVRQNLEPLFEQYINNLRRQLDSIVGERGRLDSELRGMQDLVEDFKNKYEDEINKRTAAENEFVTLKKDVDAAYMNKVELQAKADTLTDEINFLRALYDAELSQMQTHISDTSVVLSMDNNRNLDLDSIIAEVKAQYEEIAQRSRAEAESWYQTKYEELQVTAGRHGDDLRNTKQEIAEINRMIQRLRSEIDHVKKQCANLQAAIADAEQRGEMALKDAKNKLEGLEDALQKAKQDLARLLKEYQELMNVKLALDVEIATYRKLLEGEECRLNGEGVGQVNISVVQSTVSSGYGGASGVGSGLGLGGGSSYSYGSGLGVGGGFSSSSGRAIGGGLSSVGGGSSTIKYTTTSSSSRKSYKH

# Variants of: B1
# Condition Info: with tfp11_human TFIP11, Q9UBB9
# Sequence (Q9UBB9 whole entry): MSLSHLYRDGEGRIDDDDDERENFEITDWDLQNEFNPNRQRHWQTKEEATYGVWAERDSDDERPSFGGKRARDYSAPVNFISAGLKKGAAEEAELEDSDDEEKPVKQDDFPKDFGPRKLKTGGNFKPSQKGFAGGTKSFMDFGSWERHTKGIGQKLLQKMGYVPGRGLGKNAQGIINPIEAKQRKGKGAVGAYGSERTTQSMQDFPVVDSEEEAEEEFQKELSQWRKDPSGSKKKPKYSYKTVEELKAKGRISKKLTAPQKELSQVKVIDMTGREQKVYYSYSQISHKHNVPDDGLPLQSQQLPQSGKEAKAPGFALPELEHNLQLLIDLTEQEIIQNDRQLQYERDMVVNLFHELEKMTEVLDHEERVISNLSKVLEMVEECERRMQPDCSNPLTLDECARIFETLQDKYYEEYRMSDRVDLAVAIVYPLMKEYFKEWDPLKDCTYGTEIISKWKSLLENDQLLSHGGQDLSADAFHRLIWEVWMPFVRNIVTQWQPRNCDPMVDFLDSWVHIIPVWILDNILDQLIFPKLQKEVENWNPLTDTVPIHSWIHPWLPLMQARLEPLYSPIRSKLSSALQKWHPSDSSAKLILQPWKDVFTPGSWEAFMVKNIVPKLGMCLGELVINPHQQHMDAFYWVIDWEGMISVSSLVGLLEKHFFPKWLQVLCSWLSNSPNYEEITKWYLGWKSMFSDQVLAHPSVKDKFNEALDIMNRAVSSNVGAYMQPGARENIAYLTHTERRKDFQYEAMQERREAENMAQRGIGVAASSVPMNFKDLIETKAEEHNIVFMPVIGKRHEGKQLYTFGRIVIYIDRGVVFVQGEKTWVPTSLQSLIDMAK
Measurement Kind: effect of a mutation on the interaction

Variant Code: N171K
Measurement Kind: effect of a mutation on the interaction
Observed: with no effect
//
Variant Code: I462S
Measurement Kind: effect of a mutation on the interaction
Observed: with no effect
//
Variant Code: F174V
Measurement Kind: effect of a mutation on the interaction
Observed: with no effect
